- Tested on: SEM cells
- EXPERIMENTAL DETAILS: cell viability relative to DMSO control; higher = less cytotoxic
- SETUP CONDITIONS: RPMI 5 mM glucose + 10% FBS; 48 h; 1.71 µM
MEASUREMENT NAME: cell viability (%)
Dear colleague, please return just the value in %, with no unit written.

Sample answers from the record:
molecule="COc1cc2c(cc1O)CCC1C2CC[C@@]2(C)C1CC[C@@H]2O (some centres undefined)" measurement_name="cell viability" reading=84.2
molecule=C[C@@H](Cc1cc2c(c(C(N)=O)c1)N(CCCO)CC2)NCCOc1ccccc1OCC(F)(F)F measurement_name="cell viability" reading=101
molecule=CC(C)[C@]12O[C@H]1[C@@H]3O[C@@]34[C@@]5(C)CC\C6=C(COC6=O)/[C@@H]5C[C@@H]7O[C@]47[C@@H]2O measurement_name="cell viability" reading=4.12
molecule=N#Cc1c(N(CC(=O)[O-])CC(=O)[O-])sc(C(=O)[O-])c1CC(=O)[O-].O.O.O.O.O.O.O.[Sr+2].[Sr+2] measurement_name="cell viability" reading=132
molecule="C=C1CCC2[C@](C)(CO)C(O)CC[C@]2(C)C1C/C=C1/C(=O)OCC1O (some centres undefined)" measurement_name="cell viability" reading=87.1

Req: Find the recorded cell viability belonging to CNC(=O)c1nn(C)c2c1C(C)(C)Cc1cnc(Nc3ccc(N4CCN(C)CC4)cc3)nc1-2 and report it.
Resp: 13.8

* * *

# maps each entry to its cell viability
- Test system: NOMO1
- EXPERIMENTAL DETAILS: cell viability relative to DMSO control; higher = less cytotoxic
- SETUP CONDITIONS: RPMI 5 mM glucose + 10% dialyzed FBS; 48 h; 0.569 µM
Dear colleague, please return just the value in %, with no unit written.

Sample answers from the record:
molecule=Cc1cccc(-c2[nH]c(C(C)(C)C)nc2-c2ccc3nccnc3c2)n1 unit_name=% reading=120
molecule=CCCCN1CCC(CNC(=O)c2c3n(c4ccccc24)CCCO3)CC1 unit_name=% reading=117
molecule=OC(=O)CNC(=O)\C1=C(/O)C2=CC=CC=C2N(CC3=CC=CC=C3)C1=O unit_name=% reading=97.2
molecule="CC(O)(C[S+](=O)([O-])c1ccc(F)cc1)C(=O)Nc1ccc(C#N)c(C(F)(F)F)c1 (stereo not drawn)" unit_name=% reading=105

Req: Find the recorded cell viability belonging to CC(C)(Sc1cc(C(C)(C)C)c(O)c(C(C)(C)C)c1)Sc1cc(C(C)(C)C)c(O)c(C(C)(C)C)c1 and report it.
Resp: 95.5

Req: Next entry: COCC(=O)NC/C=C/c1ccc2ncnc(Nc3ccc(Oc4ccc(C)nc4)c(C)c3)c2c1
Resp: 78.4

Req: Next entry: Nc1nccc(-c2ccc3noc(-c4ccc(Cl)cc4)c3c2)n1
Resp: 127

Req: Next entry: CCc1nc(N)nc(N)c1-c1ccc(Cl)cc1
Resp: 96.8

Req: Next entry: CCn1c(C(=O)N(C2CC2)C2CC2)cc2c3c(ncn3C)c(Nc3cc(C)n(C)n3)nc21
Resp: 115

Req: Next entry: CNC(=O)c1nn(C)c2c1C(C)(C)Cc1cnc(Nc3ccc(N4CCN(C)CC4)cc3)nc1-2
Resp: 103

Req: Next entry: CC(C)(C)NCC(O)c1ccc(O)c(CO)c1 (stereo not drawn)
Resp: 92.8

Req: Next entry: Cc1nc(-c2ccc(-c3ccc(C(=O)N4CCc5cc6c(cc54)C4(CCN(C)CC4)CO6)cc3)c(C)c2)no1
Resp: 135

Req: Next entry: CN(C[C@@H]1COCCO1)[S+]([O-])(=O)NC2=CC3=C(C=C2)\C=C/C4=C(C=C(C=N4)C5=C[N](C)N=C5)C3=O
Resp: 73.7

Req: Next entry: O=C(O)c1cccc(-c2noc(-c3ccccc3F)n2)c1
Resp: 112

Req: Next entry: COc1cc(N2CCN(C)CC2)ccc1Nc1nc(N)c(C(=O)c2c(Cl)cccc2Cl)s1
Resp: 103

* * *

- System: P12-Ichikawa
- EXPERIMENTAL DETAILS: cell viability relative to DMSO control; higher = less cytotoxic
- SETUP CONDITIONS: RPMI 5 mM glucose + 10% dialyzed FBS; 48 h; 15.4 µM
Label class 1 when cell viability is strictly below 70%; otherwise label class 0.

Past entries and their recorded results:
molecule=CC1(C)[C@@H](O)CC[C@@]2(C)[C@H]1CC[C@]3(C)[C@@H]2C(=O)\C=C/4[C@@H]5C[C@](C)(CC[C@]5(C)CC[C@@]34C)C(O)=O assigned_label="class 0"
molecule=O=C(Nc1cccnc1)N1CCC(Cc2cccc(Oc3ccc(C(F)(F)F)cn3)c2)CC1 assigned_label="class 1"
molecule=O=C(CCCN1CCC(O)(c2ccc(Cl)cc2)CC1)c1ccc(F)cc1 assigned_label="class 0"
molecule=COc1cc(C[C@@H](CO)[C@H](CO)Cc2ccc(O)c(OC)c2)ccc1O assigned_label="class 0"
molecule=Cc1nc2ccc(CN(C)c3ccc(C(=O)N[C@@H](CCC(=O)O)C(=O)O)s3)cc2c(=O)[nH]1 assigned_label="class 1"
molecule=CCCCN1CCC(CNC(=O)c2c3n(c4ccccc24)CCCO3)CC1 assigned_label="class 0"
molecule=NC(=O)c1nnn(Cc2cc(Cl)c(C(=O)c3ccc(Cl)cc3)c(Cl)c2)c1N assigned_label="class 0"

Consider the record given below.
Req: Hi there! Is cell viability for Cn1cnc(N)c2ncnc1-2 below 70%, do you know?
Resp: class 1

* * *

- Test system: NOMO1
- EXPERIMENTAL DETAILS: cell viability relative to DMSO control; higher = less cytotoxic
- SETUP CONDITIONS: HPLM + 10% dialyzed FBS; 48 h; 0.0632 µM
MEASUREMENT NAME: cell viability (%)
Dear colleague, please return just the value in %, with no unit written.

Sample answers from the record:
compound=CC(C)(Sc1cc(C(C)(C)C)c(O)c(C(C)(C)C)c1)Sc1cc(C(C)(C)C)c(O)c(C(C)(C)C)c1 subject_of_test=NOMO1 unit_name=% reading=108
compound=CCCCCN(C)CCC(O)(P(=O)([O-])O)P(=O)(O)O subject_of_test=NOMO1 unit_name=% reading=85.3
compound="C#CCC(Cc1cnc2nc(N)nc(N)c2n1)c1ccc(C(=O)N[C@@H](CCC(=O)O)C(=O)O)cc1 (stereo partly drawn)" subject_of_test=NOMO1 unit_name=% reading=93.6

Req: Find the recorded cell viability belonging to CC(C)[C@]12O[C@H]1[C@@H]3O[C@@]34[C@@]5(C)CC\C6=C(COC6=O)/[C@@H]5C[C@@H]7O[C@]47[C@@H]2O and report it.
Resp: 8.16

Req: Next entry: C/C=C(\C)C(=O)N[C@@H](c1ccccc1)[C@@H](O)C(=O)O[C@H]1C[C@@]2(O)[C@@H](OC(=O)c3ccccc3)[C@@H]3[C@]4(OC(C)=O)CO[C@@H]4C[C@H](O)[C@@]3(C)C(=O)[C@H](OC(C)=O)C(=C1C)C2(C)C
Resp: 29.7

Req: Next entry: c1coc(CNc2ncnc3nc[nH]c23)c1
Resp: 129

Req: Next entry: NCCOc1cc(C(=O)Nc2cc(OCCN)c3ccccc3n2)nc(C(=O)Nc2cc(OCCN)c3ccccc3n2)c1
Resp: 38.1

Req: Next entry: COc1c(N2C[C@@H]3CCCN[C@@H]3C2)c(F)cc2c(=O)c(C(=O)O)cn(C3CC3)c12.Cl.O
Resp: 100

* * *

- Test system: NOMO1
- EXPERIMENTAL DETAILS: cell viability relative to DMSO control; higher = less cytotoxic
- SETUP CONDITIONS: RPMI 5 mM glucose + 10% FBS; 48 h; 15.4 µM
Our labelling divides records by cell viability into ranges: LOW = under 70%, MEDIUM = from 70% up to 90%, HIGH = 90% and over

molecule=O=c1oc2cc(O)ccc2s1 assigned_label=HIGH
molecule=COc1c(N2C[C@@H]3CCCN[C@@H]3C2)c(F)cc2c(=O)c(C(=O)O)cn(C3CC3)c12.Cl.O assigned_label=MEDIUM
molecule=COc1ccc(-n2c(C)c([N+](=O)[O-])c3ccc(O)cc32)cc1 assigned_label=HIGH
molecule=COCCCC/C(=N\OCCN)c1ccc(C(F)(F)F)cc1 assigned_label=MEDIUM
molecule=Cc1nc2ccc(CN(C)c3ccc(C(=O)N[C@@H](CCC(=O)O)C(=O)O)s3)cc2c(=O)[nH]1 assigned_label=MEDIUM
molecule=COc1cc(N2CCN(C)CC2)ccc1Nc1nc(N)c(C(=O)c2c(Cl)cccc2Cl)s1 assigned_label=HIGH
molecule=COc1cc2c(cc1OC)CN(CCc1ccc(NC(=O)c3cccc4c(=O)c5cccc(OC)c5[nH]c34)cc1)CC2 assigned_label=LOW
molecule="Clc1ccc(C(c2ccccc2Cl)C(Cl)Cl)cc1 (configuration not stated)" assigned_label=HIGH
molecule="Clc1ccc(C(c2ccc(Cl)cc2)[n+]2ccn(CC(OCc3ccc(Cl)cc3Cl)c3ccc(Cl)cc3Cl)c2)cc1 (configuration not stated)" assigned_label=MEDIUM
molecule=COc1cc2cc(c1Cl)N(C)C(=O)C[C@H](OC(=O)C(C)C)[C@]1(C)O[C@@H]1[C@H](C)[C@@H]1C[C@@](O)(NC(=O)O1)[C@H](OC)/C=C/C=C(\C)C2 assigned_label=LOW

Req: Band assignment needed for C[C@H](NC(=O)[C@@H](O)c1cc(F)cc(F)c1)C(=O)N[C@@H]1C(=O)N(C)c2ccccc2-c2ccccc21 please.
Resp: HIGH

Req: Next entry: CCC(=O)N1CCN(CC1)C2=C(C=C(C=C2)N3C(=O)\C=C/C4=C3C5=CC(=CC=C5N=C4)C6=CN=C7C=CC=CC7=C6)C(F)(F)F
Resp: LOW

Req: Next entry: CC[C@H](CO)Nc1nc(NCc2ccccc2)c2ncn(C(C)C)c2n1
Resp: MEDIUM

Req: Next entry: CC(O)(C[S+](=O)([O-])c1ccc(F)cc1)C(=O)Nc1ccc(C#N)c(C(F)(F)F)c1 (configuration not stated)
Resp: MEDIUM

Req: Next entry: CN(CC(=O)N(Cc1ccc(C2CCCCC2)cc1)c1ccc(C(=O)O)c(O)c1)[S+](=O)([O-])c1c(F)c(F)c(F)c(F)c1F
Resp: MEDIUM

Req: Next entry: CN1CCC(CNc2ccc3ncc(-c4cccc(OC(F)(F)F)c4)n3n2)CC1
Resp: MEDIUM

Cited source: the supplement of paper PMC11451515
